- target: PRMT5 (Homo sapiens)
- Construct: purchased Viva (custom protein)
- Sequence (O14744 whole entry): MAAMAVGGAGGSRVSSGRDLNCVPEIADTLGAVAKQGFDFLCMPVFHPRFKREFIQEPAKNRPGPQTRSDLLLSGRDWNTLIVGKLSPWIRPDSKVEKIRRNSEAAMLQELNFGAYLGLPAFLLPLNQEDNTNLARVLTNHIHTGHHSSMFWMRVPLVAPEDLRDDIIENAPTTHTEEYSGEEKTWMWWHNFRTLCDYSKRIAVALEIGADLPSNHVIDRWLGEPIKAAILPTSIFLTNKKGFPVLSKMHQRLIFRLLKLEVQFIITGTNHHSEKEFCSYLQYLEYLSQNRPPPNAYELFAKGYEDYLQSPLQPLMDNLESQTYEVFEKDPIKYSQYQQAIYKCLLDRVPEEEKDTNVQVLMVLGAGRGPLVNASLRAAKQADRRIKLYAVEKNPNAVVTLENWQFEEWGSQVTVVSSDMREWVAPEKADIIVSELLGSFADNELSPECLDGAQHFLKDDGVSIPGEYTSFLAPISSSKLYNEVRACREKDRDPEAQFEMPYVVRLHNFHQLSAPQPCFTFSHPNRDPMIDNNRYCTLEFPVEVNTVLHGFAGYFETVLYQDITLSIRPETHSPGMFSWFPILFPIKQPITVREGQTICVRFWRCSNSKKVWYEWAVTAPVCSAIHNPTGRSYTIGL
- Sequence (Q9BQA1 whole entry partner): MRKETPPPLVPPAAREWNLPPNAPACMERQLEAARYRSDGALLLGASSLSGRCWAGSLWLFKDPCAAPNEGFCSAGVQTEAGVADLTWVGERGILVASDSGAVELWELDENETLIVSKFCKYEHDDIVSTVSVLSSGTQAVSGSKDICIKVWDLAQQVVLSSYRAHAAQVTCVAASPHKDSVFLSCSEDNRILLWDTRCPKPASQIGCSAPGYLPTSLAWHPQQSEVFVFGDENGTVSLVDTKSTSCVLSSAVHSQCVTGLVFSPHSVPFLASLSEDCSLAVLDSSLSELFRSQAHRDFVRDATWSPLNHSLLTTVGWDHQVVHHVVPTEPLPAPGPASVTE
- assayExplanation: PRMT5 biochemical IC50 assay with no cofactor
- assayConditions: PRMT5, no cofactor; read-out: No Cofactor/rel IC50
outcomeMeasure: IC50

INSERT INTO assay_data (compound, measuredvalue) VALUES
  ('Cc1cc(NC(=O)C(=O)N2C[C@H](C)CC[C@H]2c2ccncc2)cnc1N (single isomer, unassigned)', '< 0.05 µM'),
  ('CCc1cc(NC(=O)C(=O)N2C[C@@H](C)CC[C@@H]2c2ccc(N3CCC(CN(C)CC)CC3)cc2)cnc1N', '< 0.05 µM'),
  ('COc1cc(OC)cc([C@@H]2CC[C@@H](C)CN2C(=O)C(=O)Nc2cncc(C(N)=O)c2)c1 (racemic)', '> 0.5 µM'),
  ('C[C@H]1CC[C@H](c2ccc3[nH]c(=O)ccc3c2)N(C(=O)C(=O)Nc2cncc(C(N)=O)c2)C1 (single isomer, unassigned)', '< 0.05 µM'),
  ('CCc1cc(NC(=O)C(=O)N2C[C@H](C)CC[C@H]2c2ccc3[nH]ncc3c2)cnc1N (single isomer, unassigned)', '> 0.5 µM'),
  ('CCc1cc(NC(=O)C(=O)N2C[C@@H](C)CC[C@@H]2c2ccc(-c3cncs3)cc2)cnc1N (single isomer, unassigned)', '> 0.5 µM'),
  ('Cc1cc(NC(=O)C(=O)N2C[C@H](C)CC[C@H]2c2ccsc2)cnc1N (racemic)', '0.05 to 0.5 µM'),
  ('COc1ncc(NC(=O)C(=O)N2CCCCC2c2ccccc2)cc1C(N)=O (single isomer, unassigned) [Compound 199]', '> 0.5 µM'),
  ('Cc1cc(NC(=O)C(=O)N2C[C@H](C)CC[C@H]2c2ccc(C(F)(F)F)nc2)cnc1N (single isomer, unassigned)', '> 0.5 µM'),
  ('C[C@@H]1CC[C@@H](c2ccc(Cl)c(Cl)c2)N(C(=O)C(=O)Nc2cncc(C(N)=O)c2)C1 (racemic) [Compound 243]', '0.05 to 0.5 µM'),
  ('COc1ncc(NC(=O)C(=O)N2C[C@@H](C)CC[C@@H]2c2ccc(NC(C)=O)cc2)cc1C(N)=O (single isomer, unassigned)', '> 0.5 µM'),
  ('Cc1cc(NC(=O)C(=O)N2C[C@@H](C)CC[C@@H]2c2cnc3[nH]ncc3c2)cnc1N (single isomer, unassigned)', '> 0.5 µM'),
  ('Cc1cc(NC(=O)C(=O)N2CC[C@@H](C(=O)C(C)C)C[C@H]2c2ccc3c(c2)CCC(=O)N3)cnc1N (racemic)', '0.05 to 0.5 µM');

* * *

- Tested on: HAP1 MTAP-deleted cell line
- assayExplanation: SDMA in-cell western assay, HAP1 MTAP-deleted
- Format: cell-based
- assayConditions: Homo sapiens, HAP1, SDMA in-cell western, HAP1 MTAP-deleted; read-out: HAP1 MTAP deleted IC50
pIC50: −log10 of the molar value.
outcomeMeasure: pIC50

INSERT INTO results (compound, measuredvalue) VALUES
  ('Cc1cc(NC(=O)C(=O)N2C[C@H](C)CC[C@H]2[C@H]2CC[C@H](O)CC2)cnc1N (single isomer, unassigned)', '> 7.00'),
  ('Cc1ccc([C@H]2CC[C@H](C)CN2C(=O)C(=O)Nc2cncc(C(N)=O)c2)cc1Cl (single isomer, unassigned)', '> 7.00'),
  ('Cc1cc(NC(=O)C(=O)N2C[C@H](C(N)=O)CC[C@H]2c2ccccc2)cnc1N (racemic)', '6.00 to 7.00'),
  ('C[C@H]1CC[C@H](c2cccc(Cl)c2)N(C(=O)C(=O)Nc2cncc(C(N)=O)c2)C1 (single isomer, unassigned)', '> 7.00'),
  ('Cc1cc(NC(=O)C(=O)N2C[C@H](C)CC[C@H]2c2ccnn2C)cnc1N (racemic)', '< 6.00'),
  ('C[C@H]1CN(C(=O)C(=O)Nc2cncc(C(N)=O)c2)[C@H](c2ccccc2)CC1(F)F (single isomer, unassigned)', '> 7.00');
